test-target: SHP2-C SH2;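 also: peptide library displayed on the E. coli surface as eCPX fusions, selected cells deep-sequenced, score is each peptide's frequency after selection divided by its frequency in the input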
test: SH2 binding enrichment of the phosphorylated peptide, bacterial display (enrichment ratio); higher = better substrate or ligand; peptides without Tyr show the background
Cut-off 0.8 on SH2 binding enrichment, inclusive. At or above means rule met; below means rule not met.

Illustrative cases are given below, each with its answer.
Problem: State whether the measured SH2 binding enrichment reaches 0.8, counting equality as reaching it, for RLSVDCGKKSK [TUBA4A_Y161_Y161C]
Solution: rule met

Problem: Could you verify whether the entry ESLSSYWESAK [APOC2_Y47] shows SH2 binding enrichment of no less than 0.8?
Solution: rule not met

Problem: Confirm if SH2 binding enrichment reported for the sequence EEKKKYYDTKI [CASP5_Y103] is 0.8 or above.
Solution: rule not met

Problem: Threshold query (SH2 binding enrichment >= 0.8) on SRDTCYLVLAV [AMH_Y195_R194C]
Solution: rule not met

Problem: Reported SH2 binding enrichment reaches at least 0.8 for DGNIDYAEFAK [MCFD2_Y138_Y135N] ?
Solution: rule met

Next:
Problem: Could you please find out whether NLNGKYNKPRA [ANGPTL3_Y417] has SH2 binding enrichment that meets 0.8 or exceeds it?
Solution: rule met

Problem: Is SH2 binding enrichment at least 0.8? Consider GVRYIYTIDGS [DCX_Y105]
Solution: rule met
